Data provenance is patent US6723897B2.

Tested on: wild-type soybeans (line A3237)
Method Notes: Summary of first two greenhouse experiments, elongation of wild-type soybeans
Condition Info: 0.0025 mg/ml solution (ethanol-water)
The compounds listed here are annotated with their Elongation of wild-type soybeans.

Compound: C=C1C[C@@]23CC[C@H]4[C@@](C)(CCC[C@@]4(C)C(=O)O)[C@@H]2CC[C@@H]1C3 [kaurenoic acid]
Elongation of wild-type soybeans: 0

Compound: C=C1C[C@]23C[C@H]1CC[C@H]2[C@]1(C)CCC[C@@](C)(C(=O)O)[C@H]1[C@@H]3C(=O)O [GA12]
Elongation of wild-type soybeans: 0

Compound: C=C1C[C@]23C[C@@]1(O)CC[C@H]2[C@@]12CC=C[C@@](C)(C(=O)O1)[C@H]2[C@@H]3C(=O)O [GA5]
Elongation of wild-type soybeans: 0

====

System: GA-deficient transgenic soybean line 719 (R5)
Method Notes: Hilum treatment of soybean seeds, seedling growth and development, GA-deficient soybean
Assay type: in vivo, Glycine max
Design: key: pos: emergence faster/stem segment longer than controls; 0: emergence timing/stem segment length similar to controls; neg: emergence slower/stem segment shorter than controls
Condition Info: L719; hilum treatment, single rate per compound 8.3-16.5 μg/seed
Quantity Measured: 1st internode length (12 DAP)

Compound: C=C1C[C@]23C[C@H]1CC[C@H]2[C@]1(C)CCC[C@@](C)(C(=O)O)[C@H]1[C@@H]3C(=O)O
Number: 0

Compound: C=C1C[C@]23C[C@@]1(O)CC[C@H]2[C@]1(C)CCC[C@@](C)(C(=O)O)[C@H]1[C@@H]3C(=O)O
Number: 0

Compound: C=C1C[C@@]23CC[C@H]4[C@@](C)(CCC[C@@]4(C)C(=O)O)[C@@H]2CC[C@]1(O)C3 (single isomer, unassigned; ent-7)
Number: 0

Compound: C=C1C[C@@]23CC[C@H]4[C@@](C)(CCC[C@@]4(C)C(=O)O)[C@@H]2CC[C@@H]1C3
Number: 0

Compound: C=C1C[C@]23C[C@H]1CC[C@H]2[C@]1(C)CCC[C@@](C)(C(=O)O)[C@H]1[C@@H]3C=O
Number: 0

Compound: C=C1C[C@@]23CC[C@@H]4[C@](C)(CO)CCC[C@@]4(C)[C@@H]2CC[C@@H]1C3
Number: 0

Compound: C=C1C[C@@]23CC[C@@H]4C(C)(C)CCC[C@@]4(C)[C@@H]2CC[C@@H]1C3
Number: 0

====

Test system: constitutively GA-deficient transgenic dwarf soybean line 719
Method Notes: Fifth and sixth field tests, emergence after seed imbibition
Type: in vivo, Glycine max
Condition Info: 0.025 mg/ml; 50 seeds imbibed 5 hours
Decision: Total Emerged >= 20 yields t, all other cases yield f.

Compound: C=C1C[C@]23C[C@H]1CC[C@H]2[C@@]12CCC[C@@](C)(C(=O)O1)[C@H]2[C@@H]3C(=O)O
Category Label: t

Compound: C=C1C[C@]23C[C@@]1(O)CC[C@H]2[C@@]12C=C[C@H](OC(C)=O)[C@@](C)(C(=O)O1)[C@H]2[C@@H]3C(=O)O [GA3-3-acetate]
Category Label: f

Compound: C=C1C[C@]23C[C@@]1(O)CC[C@H]2[C@@]12CC=C[C@@](C)(C(=O)O1)[C@H]2[C@@H]3C(=O)O
Category Label: t

Compound: C=C1C[C@]23C[C@H]1CC[C@H]2[C@]1(C)CCC[C@@](C)(C(=O)O)[C@H]1[C@@H]3C(=O)O
Category Label: t

Compound: C=C1C[C@]23C[C@@]1(O)CC[C@H]2[C@@]12C=C[C@H](O)[C@@](C)(C(=O)O1)[C@H]2[C@@H]3C(=O)O
Category Label: f

====

System: GA-deficient transgenic soybean line 719 (R5)
Method Notes: Hilum treatment of soybean seeds, seedling growth and development, GA-deficient soybean
Assay type: in vivo, Glycine max
Design: key: pos: emergence faster/stem segment longer than controls; 0: emergence timing/stem segment length similar to controls; neg: emergence slower/stem segment shorter than controls
Condition Info: L719; hilum treatment, single rate per compound 8.3-16.5 μg/seed

Compound: C=C1C[C@]23C[C@@]1(O)CC[C@H]2[C@@]12C=C[C@H](O)[C@@](C)(C(=O)O1)[C@H]2[C@@H]3C(=O)O [GA3, gibberellic acid]
Hypocotyl length (6 DAP): pos
--
Compound: C=C1C[C@@]23CC[C@@H]4[C@](C)(CO)CCC[C@@]4(C)[C@@H]2CC[C@@H]1C3 [kaurenol]
Hypocotyl length (6 DAP): pos
--
Compound: C=C1C[C@]23C[C@@]1(O)CC[C@H]2[C@@]12C=C[C@H](OC(C)=O)[C@@](C)(C(=O)O1)[C@H]2[C@@H]3C(=O)O [GA3-3-acetate]
Hypocotyl length (6 DAP): pos
--
Compound: C=C1C[C@]23C[C@@]1(O)CC[C@H]2[C@]1(C)CCC[C@@](C)(C(=O)O)[C@H]1[C@@H]3C(=O)O [GA53]
Hypocotyl length (6 DAP): pos
--
Compound: C=C1C[C@@]23CC[C@H]4[C@@](C)(CCC[C@@]4(C)C(=O)O)[C@@H]2CC[C@]1(O)C3 (single isomer, unassigned; ent-7) [steviol]
Hypocotyl length (6 DAP): pos
--
Compound: C=C1C[C@]23C[C@H]1CC[C@H]2[C@]1(C)CCC[C@@](C)(C(=O)O)[C@H]1[C@@H]3C(=O)O [GA12]
Hypocotyl length (6 DAP): neg
--
Compound: C=C1C[C@@]23CC[C@@H]4C(C)(C)CCC[C@@]4(C)[C@@H]2CC[C@@H]1C3 [kaurene]
Hypocotyl length (6 DAP): 0
--
Compound: C=C1C[C@@]23CC[C@H]4[C@@](C)(CCC[C@@]4(C)C(=O)O)[C@@H]2CC[C@@H]1C3 [kaurenoic acid]
Hypocotyl length (6 DAP): 0
--
Compound: C=C1C[C@]23C[C@@]1(O)CC[C@H]2[C@@]12CC=C[C@@](C)(C(=O)O1)[C@H]2[C@@H]3C(=O)O [GA5]
Hypocotyl length (6 DAP): pos
--
Compound: C=C1C[C@]23C[C@H]1CC[C@H]2[C@@]12CCC[C@@](C)(C(=O)O1)[C@H]2[C@@H]3C(=O)O [GA9]
Hypocotyl length (6 DAP): pos
--
Compound: C=C1C[C@]23C[C@H]1CC[C@H]2[C@]1(C)CCC[C@@](C)(C(=O)O)[C@H]1[C@@H]3C=O [GA12-aldehyde]
Hypocotyl length (6 DAP): pos

====

Test system: non-transgenic soybean line A4922
Method Notes: Field trial of seed coatings under soil compaction / different soils, wild-type soybean
Format: in vivo, Glycine max
Condition Info: A4922; Light soil - compacted; target rate 2.0 μg/seed; Table 24
Quantity Measured: Height (total plant height)

Compound: C=C1C[C@]23C[C@@]1(O)CC[C@H]2[C@@]12CC=C[C@@](C)(C(=O)O1)[C@H]2[C@@H]3C(=O)O [GA5]
Quantity Measured: Height (total plant height)
Result: 9.0 c cm
//
Compound: C=C1C[C@]23C[C@@]1(O)CC[C@H]2[C@@]12C=C[C@H](O)[C@@](C)(C(=O)O1)[C@H]2[C@@H]3C(=O)O [GA3, gibberellic acid]
Quantity Measured: Height (total plant height)
Result: 8.0 c cm
//
Compound: C=C1C[C@]23C[C@H]1CC[C@H]2[C@@]12CCC[C@@](C)(C(=O)O1)[C@H]2[C@@H]3C(=O)O [GA9]
Quantity Measured: Height (total plant height)
Result: 5.7 def cm
//
Compound: C=C1C[C@]23C[C@@]1(O)CC[C@H]2[C@@]12C=C[C@H](OC(C)=O)[C@@](C)(C(=O)O1)[C@H]2[C@@H]3C(=O)O [GA3-3-acetate]
Quantity Measured: Height (total plant height)
Result: 8.7 c cm

====

The molecules listed here are annotated with their A4922 Height, cm, Light soil.
Test system: wild-type soybean line A4922
Method Notes: Field trial of seed coating application rates, wild-type soybean
Condition Info: 1 μg compound per seed

Structure String: C=C1C[C@]23C[C@@]1(O)CC[C@H]2[C@@]12CC=C[C@@](C)(C(=O)O1)[C@H]2[C@@H]3C(=O)O
A4922 Height, cm, Light soil: 7.3 fg·cm

Structure String: C=C1C[C@]23C[C@H]1CC[C@H]2[C@@]12CCC[C@@](C)(C(=O)O1)[C@H]2[C@@H]3C(=O)O
A4922 Height, cm, Light soil: 6.3 fgh cm

Structure String: C=C1C[C@]23C[C@H]1CC[C@H]2[C@]1(C)CCC[C@@](C)(C(=O)O)[C@H]1[C@@H]3C(=O)O
A4922 Height, cm, Light soil: 5.0 g-i cm

Structure String: C=C1C[C@]23C[C@@]1(O)CC[C@H]2[C@@]12C=C[C@H](O)[C@@](C)(C(=O)O1)[C@H]2[C@@H]3C(=O)O
A4922 Height, cm, Light soil: 8.3 ef cm

====

The molecules listed here are annotated with their No. A4922 Emerged, Light soil.
Test system: wild-type soybean line A4922
Method Notes: Field trial of seed coating application rates, wild-type soybean
Condition Info: 10 μg compound per seed

Molecule: C=C1C[C@]23C[C@H]1CC[C@H]2[C@@]12CCC[C@@](C)(C(=O)O1)[C@H]2[C@@H]3C(=O)O [GA9]
Units Symbol: c-h
No. A4922 Emerged, Light soil: 46.0
//
Molecule: C=C1C[C@]23C[C@@]1(O)CC[C@H]2[C@@]12CC=C[C@@](C)(C(=O)O1)[C@H]2[C@@H]3C(=O)O [GA5]
Units Symbol: c-h
No. A4922 Emerged, Light soil: 45.7
